test system: SK-MEL-2 melanoma; experiment: NCI-60 one-dose screen, 48 h; conditions: 10 µM unless noted
This is part of a sample that, as a whole, favours compounds with a hit. Of some 83,000 tested, about 20% had one in any assay. Calls of active or inactive are those of the source. How the source made its calls: active means growth percent below 10; inactive means the rest.
Answer with one of the outcomes 1 (yes) (active), 0 (no) (inactive)

A selection of reference data follows.
{"compound": "CCc1ccccc1-c1nc(CN[C@@H]2C[C@@H]3C[C@H]([C@H]2C)C3(C)C)c(C)o1", "class": "1 (yes)"}
{"compound": "COc1cc(C2C(C(=O)OCc3ccccc3)=C(C)Nc3nc4ccccc4n32)cc(OC)c1OC (stereo unspecified)", "class": "0 (no)"}
{"compound": "C=CCSc1nnc(-c2c(C)nc3sccn23)o1", "class": "0 (no)"}
{"compound": "O=C1Nc2cc(-c3ccc(NS(=O)(=O)c4ccc([N+](=O)[O-])cc4)cc3)ccc2/C1=C/c1ccc[nH]1", "class": "0 (no)"}
{"compound": "O=C(N=Nc1c(O)[nH]c2ccc(Cl)cc12)c1ccc2nc(-c3ccc(Cl)cc3)[nH]c2c1", "class": "0 (no)"}
{"compound": "O=C(NNC(=S)NC(=O)c1ccccc1)c1ccc(OCc2nc3ccc(Cl)cc3[nH]2)cc1", "class": "1 (yes)"}
{"compound": "COc1sc(/C=N/NC(=O)c2[nH]c3ccc(Br)cc3c2-c2ccccc2)cc1Cl", "class": "1 (yes)"}
{"compound": "COc1cc(CNC(=O)[C@]23CCC(C)(C)CC2C2=CCC4[C@@]5(C)CCC(OC(C)=O)C(C)(C)C5CC[C@@]4(C)[C@]2(C)CC3)ccc1OCc1cn(-c2ccc(Cl)cc2Cl)nn1 (stereo partly specified)", "class": "0 (no)"}

Then there is this compound:
Query block: Field: outcome | Entry: `CC[C@]12C=CCN3CC[C@@]4(c5ccc(OC)cc5N(C)[C@H]4[C@@](O)(C(=O)OC)[C@@H]1OC(=O)CCCC[P+](c1ccc(F)cc1)(c1ccc(F)cc1)c1ccc(F)cc1)[C@@H]32`
Result block: 1 (yes)

###

system: 786-0 renal; assay: NCI-60 one-dose screen, 48 h (100 = growth as untreated, 0 = no growth, -100 = all killed); details: 10 µM unless noted
About 83,000 compounds went through this panel and 20% of them were active in at least one assay; those are over-represented in the sample as a whole.
The following molecules are shown together with reported growth values.
Give just the numeric value; % need not be written.

{"molecule": "COc1ccc(CCC2NCCc3c(Br)c4c(c(OC)c32)OCO4)cc1 (stereo not given)", "measured_on": "786-0 renal", "units_symbol": "%", "growth": 8.08}
{"molecule": "CN(C)c1ccc(/C=C/c2n(Cc3ccc4ccccc4c3)c3ccccc3[n+]2Cc2ccc3ccccc3c2)cc1", "measured_on": "786-0 renal", "units_symbol": "%", "growth": -72}
{"molecule": "O=C(Nc1ccc(-c2ccc3c(c2)NC(=O)/C3=C\\c2ccc[nH]2)cc1)Nc1ccc(Cl)c(C(F)(F)F)c1", "measured_on": "786-0 renal", "units_symbol": "%", "growth": 48.8}
{"molecule": "Cn1ncc2c(N)nc(Oc3ccccc3-c3ccccc3)nc21", "measured_on": "786-0 renal", "units_symbol": "%", "growth": 52.6}

# next molecule below
Query block: Tell me measured growth for `COc1ccc2[nH]c(O)c(N=Nc3nc(-c4ccccc4)cs3)c2c1` please.
Result block: -44.8
